- system: human GLP1R (Homo sapiens, UniProt P43220)
- Sequence (P43220 24-463): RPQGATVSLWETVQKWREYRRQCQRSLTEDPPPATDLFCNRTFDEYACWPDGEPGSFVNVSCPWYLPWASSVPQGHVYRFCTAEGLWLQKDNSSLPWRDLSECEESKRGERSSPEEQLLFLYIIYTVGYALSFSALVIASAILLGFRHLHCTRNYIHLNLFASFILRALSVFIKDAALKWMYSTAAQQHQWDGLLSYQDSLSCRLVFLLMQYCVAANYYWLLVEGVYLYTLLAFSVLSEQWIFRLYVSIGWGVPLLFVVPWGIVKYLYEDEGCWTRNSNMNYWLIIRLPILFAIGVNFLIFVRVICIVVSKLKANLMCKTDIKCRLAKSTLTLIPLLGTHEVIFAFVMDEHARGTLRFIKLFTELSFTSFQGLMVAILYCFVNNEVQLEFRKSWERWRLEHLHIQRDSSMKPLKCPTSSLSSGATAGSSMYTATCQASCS
- procedure.details: Luciferase reporter assay, HEK293/CRE-Luc/hGLP1R (Example 17)
- Type: cell-based
- Parameters: engineered to express full-length human GLP1R, cynomolgus GLP1R; expressed in transfected cells; host or cells: HEK293/CRE-Luc
- stated.conditions: HEK293/CRE-Luc/hGLP1R; relative to M2361 of the same experiment
Where a SMILES comes first, the peptide text is derived from it. [ ]: non-standard residue; d: D form. The star is where a group is joined. Bip(2'-Et,4'-O(CH2)4NH2) = CCc1cc(OCCCCN)ccc1-c1ccc(C[C@H](N)C(=O)O)cc1; Nva(5-(3,5-Me2Ph)) = Cc1cc(C)cc(CCC[C@H](N)C(=O)O)c1; Ala(1H-tetrazol-5-yl) = N[C@@H](Cc1nnn[nH]1)C(=O)O; αMePhe(2-F) = C[C@](N)(Cc1ccccc1F)C(=O)O; X3 = CC(C)(C(=O)*)c1ccn[nH]1; X1 = O=C(CCCCCc1cnc[nH]1)*
measure.name: Relative Potency (% M2361 EC50) (%)
Answers are plain numbers, in %.

- CCc1cc(OCCCCN)ccc1-c1ccc(C[C@H](NC(=O)[C@H](CC(=O)O)NC(=O)[C@H](CO)NC(=O)[C@@H](NC(=O)[C@](C)(Cc2ccccc2F)NC(=O)[C@@H](NC(=O)CNC(=O)[C@H](Cc2nn[nH]n2)NC(=O)CCCCCc2cnc[nH]2)[C@@H](C)O)[C@@H](C)O)C(=O)N[C@@H](CCCc2cc(C)cc(C)c2)C(N)=O)cc1 [P11] (X1-[Ala(1H-tetrazol-5-yl)]GT[αMePhe(2-F)]TSD[Bip(2'-Et,4'-O(CH2)4NH2)][Nva(5-(3,5-Me2Ph))]-NH2): 0.8

Go through the items and report each one's Relative Potency (% M2361 EC50).
1. CCc1cc(OCCCCN)ccc1-c1ccc(C[C@H](NC(=O)[C@H](CC(=O)O)NC(=O)[C@H](CO)NC(=O)[C@@H](NC(=O)[C@](C)(Cc2ccccc2F)NC(=O)[C@@H](NC(=O)CNC(=O)[C@H](Cc2nn[nH]n2)NC(=O)C(C)(C)c2ccn[nH]2)[C@@H](C)O)[C@@H](C)O)C(=O)N[C@@H](CCCc2cc(C)cc(C)c2)C(N)=O)cc1 [P6] (X3-[Ala(1H-tetrazol-5-yl)]GT[αMePhe(2-F)]TSD[Bip(2'-Et,4'-O(CH2)4NH2)][Nva(5-(3,5-Me2Ph))]-NH2)
2. CCc1cc(OCCCCN)ccc1-c1ccc(C[C@H](NC(=O)[C@H](CC(=O)O)NC(=O)[C@H](CO)NC(=O)[C@@H](NC(=O)[C@](C)(Cc2ccccc2F)NC(=O)[C@@H](NC(=O)CNC(=O)[C@H](Cc2nn[nH]n2)NC(=O)[C@H](C)NC(=O)[C@@H](N)Cc2ccc(O)cc2)[C@@H](C)O)[C@@H](C)O)C(=O)N[C@@H](CCCc2cc(C)cc(C)c2)C(N)=O)cc1
3. CCc1cc(OCCCCN)ccc1-c1ccc(C[C@H](NC(=O)[C@H](CC(=O)O)NC(=O)[C@H](CO)NC(=O)[C@@H](NC(=O)[C@](C)(Cc2ccccc2F)NC(=O)[C@@H](NC(=O)CNC(=O)[C@H](Cc2nn[nH]n2)NC(=O)C2(C)CCN(CCc3cnc[nH]3)C2=O)[C@@H](C)O)[C@@H](C)O)C(=O)N[C@@H](CCCc2cc(C)cc(C)c2)C(N)=O)cc1 (stereo in doubt)
4. CCc1cc(OCCCCn2cc(COCCOCCOCCOCCNC(=O)COC3C#CCCCCC3)nn2)ccc1-c1ccc(C[C@H](NC(=O)[C@H](CC(=O)O)NC(=O)[C@H](CO)NC(=O)[C@@H](NC(=O)[C@](C)(Cc2ccccc2F)NC(=O)[C@@H](NC(=O)CNC(=O)[C@H](Cc2nn[nH]n2)NC(=O)C(C)(C)C(=O)NCCc2cnc[nH]2)[C@@H](C)O)[C@@H](C)O)C(=O)N[C@@H](CCCc2cc(C)cc(C)c2)C(N)=O)cc1 (stereo partly shown)
5. CCc1cc(OCCCCN)ccc1-c1ccc(C[C@H](NC(=O)[C@H](CC(=O)O)NC(=O)[C@H](CO)NC(=O)[C@@H](NC(=O)[C@](C)(Cc2ccccc2F)NC(=O)[C@@H](NC(=O)CNC(=O)[C@H](CCC(N)=O)NC(=O)C(C)(C)C(=O)NCCc2cnc[nH]2)[C@@H](C)O)[C@@H](C)O)C(=O)N[C@@H](CCCc2cc(C)cc(C)c2)C(N)=O)cc1
6. CCc1cc(OCCCCNC(=O)[C@H](CO)NC(=O)CNC(=O)CNC(=O)CNC(=O)CNC(=O)[C@H](CO)NC(=O)CNC(=O)CNC(=O)CNC(=O)CNC(=O)CCC(=O)N2Cc3ccccc3C#Cc3ccccc32)ccc1-c1ccc(C[C@H](NC(=O)[C@H](CC(=O)O)NC(=O)[C@H](CO)NC(=O)[C@@H](NC(=O)[C@](C)(Cc2ccccc2F)NC(=O)[C@@H](NC(=O)CNC(=O)[C@H](Cc2nn[nH]n2)NC(=O)C(C)(C)C(=O)NCCc2cnc[nH]2)[C@@H](C)O)[C@@H](C)O)C(=O)N[C@@H](CCCc2cc(C)cc(C)c2)C(N)=O)cc1

**Result**
0.9
8.7
2.9
13.6
0.7
50.4

Batch of 3 compounds: report Relative Potency (% M2361 EC50) for each.
1. CCc1cc(OCCCCNC(=O)[C@H](CO)NC(=O)CNC(=O)CNC(=O)CNC(=O)CNC(=O)CCC(=O)N2Cc3ccccc3C#Cc3ccccc32)ccc1-c1ccc(C[C@H](NC(=O)[C@H](CC(=O)O)NC(=O)[C@H](CO)NC(=O)[C@@H](NC(=O)[C@](C)(Cc2ccccc2F)NC(=O)[C@@H](NC(=O)CNC(=O)[C@H](Cc2nn[nH]n2)NC(=O)C(C)(C)C(N)=O)[C@@H](C)O)[C@@H](C)O)C(=O)N[C@@H](CCCc2cc(C)cc(C)c2)C(N)=O)cc1
2. CCc1cc(OCCCCN)ccc1-c1ccc(C[C@H](NC(=O)[C@H](CC(=O)O)NC(=O)[C@H](CO)NC(=O)[C@@H](NC(=O)[C@](C)(Cc2ccccc2F)NC(=O)[C@@H](NC(=O)CNC(=O)[C@H](Cc2nn[nH]n2)NC(=O)C(C)(C)C(=O)NCCc2cnc[nH]2)[C@@H](C)O)[C@@H](C)O)C(=O)Nc2ccccc2)cc1
3. CCc1cc(OCCCCn2cc(COCCOCCOCCOCCNC(=O)OC[C@@H]3[C@@H]4CCC#CCC[C@@H]43)nn2)ccc1-c1ccc(C[C@H](NC(=O)[C@H](CC(=O)O)NC(=O)[C@H](CO)NC(=O)[C@@H](NC(=O)[C@](C)(Cc2ccccc2F)NC(=O)[C@@H](NC(=O)CNC(=O)[C@H](Cc2nn[nH]n2)NC(=O)C(C)(C)C(=O)NCCc2cnc[nH]2)[C@@H](C)O)[C@@H](C)O)C(=O)N[C@@H](CCCc2cc(C)cc(C)c2)C(N)=O)cc1

**Result**
2.2
1.2
30.5
